- targetOrTestSystem: KRAS-G12V/RAF1 (Homo sapiens (Human), UniProt P01116, G12V)
- Sequence (P01116-2 other isoform, or with tags, fused parts or gaps G12V): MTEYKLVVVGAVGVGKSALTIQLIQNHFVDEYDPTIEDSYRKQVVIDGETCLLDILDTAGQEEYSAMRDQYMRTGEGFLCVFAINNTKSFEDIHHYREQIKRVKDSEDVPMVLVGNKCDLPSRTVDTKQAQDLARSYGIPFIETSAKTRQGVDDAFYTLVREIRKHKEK
- protocolText: KRAS/RAF1 binding inhibition assay (AlphaScreen)
measure: IC50

Record excerpt, results attached:
CCc1c(F)ccc2cc(O)cc(-c3ncc4c(NCC5(N(C)C)CCC5)nc(OCC5(CN6CCC7(CC6)CC(CN6CCN(c8ccc9c(c8)CN([C@H]8CCC(=O)NC8=O)C9=O)CC6)C7)CC5)nc4c3F)c12: > 200 nM
CCc1cccc2cc(O)cc(-c3ncc4c(N5CCC[C@@](C)(O)C5)nc(OCC5(CN6CCC7(CC6)CCN(c6ccc8c(c6)CN(C6CCC(=O)NC6=O)C8=O)CC7)CC5)nc4c3F)c12 (stereo partly drawn): 20 to 200 nM
CCc1cccc2cc(O)cc(-c3ncc4c(N5CCC[C@@](C)(O)C5)nc(OCC5(CN6CCC7(CC6)CC(N6CCN(c8ccc9c(c8)CN([C@H]8CCC(=O)NC8=O)C9=O)CC6)C7)CC5)nc4c3F)c12: 20 to 200 nM
CCc1cccc2cc(O)cc(-c3ncc4c(N5CCC[C@@](C)(O)C5)nc(OCC5(CN6CCC7(CC6)CC(N6CCN(c8ccc9c(c8)C(=O)N(C8CCC(=O)NC8=O)C9=O)CC6)C7)CC5)nc4c3F)c12 (stereo partly drawn): 20 to 200 nM
CCc1c(F)ccc2cc(O)cc(-c3ncc4c(N5CCC[C@@](C)(O)C5)nc(OCC5(CN6CCC(C)(CN7CCN(c8cc(F)c(C9CCC(=O)NC9=O)c(F)c8)CC7)CC6)CC5)nc4c3F)c12 (stereo partly drawn): 20 to 200 nM
CCc1c(F)ccc2cc(O)cc(-c3ncc4c(N5CCC[C@@](C)(O)C5)nc(OCC5(CN6CCC(OC7CC8(CCN(c9ccc%10c(c9)CN(C9CCC(=O)NC9=O)C%10=O)CC8)C7)CC6)CC5)nc4c3F)c12 (stereo partly drawn): 20 to 200 nM
CCc1c(F)ccc2cc(O)cc(-c3ncc4c(N5CCC[C@@](C)(O)C5)nc(OCC5(CN6CCC(N7CC(N8CCN(c9ccc%10c(c9)CN([C@H]9CCC(=O)NC9=O)C%10=O)CC8)C7)CC6)CC5)nc4c3F)c12: < 20 nM
CCc1c(F)ccc2cc(O)cc(-c3ncc4c(N5CCC[C@@](C)(O)C5)nc(OCC5(CN6CC7(CCC(CN8CCN(c9ccc%10c(c9)CN([C@H]9CCC(=O)NC9=O)C%10=O)CC8)CC7)C6)CC5)nc4c3F)c12: 20 to 200 nM

## Task May I ask what IC50 has been recorded for CCc1c(F)ccc2cc(O)cc(-c3ncc4c(N5CCC[C@@](C)(O)C5)nc(OCC5(CN6CC7(CC(CN8CCN(c9ccc%10c(c9)CN([C@@H]9CCC(=O)NC9=O)C%10=O)CC8)C7)C6)CC5)nc4c3F)c12 ?
## Result < 20 nM

----------
- targetOrTestSystem: KRAS-G12V/RAF1 (Homo sapiens (Human), UniProt P01116, G12V)
- protocolText: KRAS/RAF1 binding inhibition assay (AlphaScreen)
pIC50: −log10 of the molar value.
measure: pIC50

CCc1c(F)ccc2cc(O)cc(-c3ncc4c(N5CCC[C@@](C)(O)C5)nc(OCC5(CN6CCN(C7CCC8(CC7)CCN(c7ccc9c(c7)CN(C7CCC(=O)NC7=O)C9=O)CC8)CC6)CC5)nc4c3F)c12 (some centres unmarked): 6.70 to 7.70

Then there is this compound:
## Task May I ask what pIC50 has been recorded for CCc1c(F)ccc2cc(O)cc(-c3ncc4c(N5CCC[C@@](C)(O)C5)nc(OCC5(CN6CCC7(CC6)CC(F)(CN6CCN(c8ccc9c(c8)CN([C@H]8CCC(=O)NC8=O)C9=O)CC6)C7)CC5)nc4c3F)c12 ?
## Result 6.70 to 7.70

The reported measurements were obtained from patent US20250092039A1.
